Provenance of the data: patent US8269015B2

- TARGET_OR_TEST_SYSTEM: CCR2 (Homo sapiens)
- METHOD: MCP-1 Receptor Binding Assay in THP-1 Cells (125I labeled MCP-1)
- ASSAY_CONTEXT: 0.5 nM 125I labeled MCP-1, 2 hours at 30° C., read-out: Inhibition of MCP-1 Binding IC50, CCR2 Binding
MEASURED_PARAMETER: IC50 (µM)

{"COMPOUND": "N#CCn1cc(C2CCC(N3CC(NC(=O)CNC(=O)c4cccc(C(F)(F)F)c4)C3)CC2)ccc1=O (centres unmarked) [Example 41]", "U": "µM", "REPORTED": 0.13}
{"COMPOUND": "O=C(CNC(=O)c1cccc(C(F)(F)F)c1)NC1CN(C2CCC(c3cnccc3O)CC2)C1 (centres unmarked) [Example 11]", "U": "µM", "REPORTED": 0.46}
{"COMPOUND": "CNc1cccc(C2CCC(N3CC(NC(=O)CNC(=O)c4cccc(C(F)(F)F)c4)C3)CC2)n1 (single isomer, unassigned) [Example 23a]", "U": "µM", "REPORTED": 0.072}
{"COMPOUND": "O=C(CNC(=O)c1cccc(C(F)(F)F)c1)NC1CN(C2CCC(c3cccc(NC(=O)C(F)(F)F)n3)CC2)C1 (centres unmarked) [Example 24]", "U": "µM", "REPORTED": 0.06}

I = COC(=O)Nc1ncc(C2CCC(N3CC(NC(=O)CNC(=O)c4cccc(C(F)(F)F)c4)C3)CC2)s1 (single isomer, unassigned) [Example 51a]
II = Cn1ccc(C2CCC(N3CC(NC(=O)CNC(=O)c4cccc(C(F)(F)F)c4)C3)CC2)cc1=O (single isomer, unassigned) [Example 46a]
Which one would you say has the larger IC50 value: I , or II ? Lab log: write the label of the selected item as the result.
II
(II: 0.55 µM, I: 0.34 µM)

1 = O=C(CNC(=O)c1cccc(C(F)(F)F)c1)NC1CN(C2CCC(c3noc(N4CCCC4)n3)CC2)C1 (mixture of isomers) [Example 59]
2 = CC(=O)Nc1ccc(C2CCC(N3CC(NC(=O)CNC(=O)c4cccc(C(F)(F)F)c4)C3)CC2)nc1 (centres unmarked) [Example 13]
When 1 and 2 are compared, which has the higher number for IC50? # answer = label of selected item
1
(1: 0.4 µM, 2: 0.09 µM)

---

- TARGET_OR_TEST_SYSTEM: UniProt:P41597
- METHOD: MCP-1 Receptor Binding Assay in THP-1 Cells (125I labeled MCP-1)
- ASSAY_CONTEXT: 0.5 nM 125I labeled MCP-1, 2 hours at 30° C., read-out: Inhibition of MCP-1 Binding IC50, CCR2 Binding
MEASURED_PARAMETER: IC50 (µM)

I = O=C(CNC(=O)c1cccc(C(F)(F)F)c1)NC1CN(C2CCC(c3ncccc3NC(=O)C(F)(F)F)CC2)C1 (stereo not shown) [Example 17]
II = O=C(CNC(=O)c1cccc(C(F)(F)F)c1)NC1CN(C2CCC(c3nc4n(n3)CCCC4)CC2)C1 (mixture of isomers) [Example 63]
III = O=C(CNC(=O)c1cccc(C(F)(F)F)c1)NC1CN(C2CCC(c3noc(C(Cl)(Cl)Cl)n3)CC2)C1 (stereo not shown) [Example 58]
IV = CN(C)c1ccncc1C1CCC(N2CC(NC(=O)CNC(=O)c3cccc(C(F)(F)F)c3)C2)CC1 (stereo not shown) [Example 29b]
Rank items: key IC50, increasing. Reply format: the labels, ordered as requested.
III, I, II, IV
(III: 0.51 µM, I: 0.92 µM, II: 1.5 µM, IV: 10 µM)

---

- TARGET_OR_TEST_SYSTEM: CCR2 (Homo sapiens)
- METHOD: MCP-1 Receptor Binding Assay in THP-1 Cells (125I labeled MCP-1)
- ASSAY_CONTEXT: 0.5 nM 125I labeled MCP-1, 2 hours at 30° C., read-out: Inhibition of MCP-1 Binding IC50, CCR2 Binding
pIC50: −log10 of the molar value.
MEASURED_PARAMETER: pIC50

Past entries and their recorded results:
{"COMPOUND": "O=C(CNC(=O)c1cccc(C(F)(F)F)c1)NC1CN(C2CCC(c3ccc(=O)n(CCO)c3)CC2)C1 (stereo not shown)", "pIC50": 6.48}
{"COMPOUND": "CS(=O)(=O)Nc1ccc(C2CCC(N3CC(NC(=O)CNC(=O)c4cccc(C(F)(F)F)c4)C3)CC2)nc1 (stereo not shown)", "pIC50": 6.64}
{"COMPOUND": "Nc1cncc(C2CCC(N3CC(NC(=O)CNC(=O)c4cccc(C(F)(F)F)c4)C3)CC2)c1 (stereo not shown)", "pIC50": 6.49}

P = Cc1cc(=O)[nH]c(C2CCC(N3CC(NC(=O)CNC(=O)c4cccc(C(F)(F)F)c4)C3)CC2)n1 (mixture of isomers)
Q = Cc1cc(C2CCC(N3CC(NC(=O)CNC(=O)c4cccc(C(F)(F)F)c4)C3)CC2)cn(C)c1=O (single isomer, unassigned) [Example 45a]
R = O=C(CNC(=O)c1cccc(C(F)(F)F)c1)NC1CN(C2CCC(c3cncc(O)c3)CC2)C1 (stereo not shown)
Sort the compounds on pIC50; start with the lowest figure. In your reply, arrange the labels in the requested order.
P, R, Q
(P: 5.41, R: 6.59, Q: 7.21)

---

- TARGET_OR_TEST_SYSTEM: CCR2 (Homo sapiens, UniProt P41597)
- Sequence (P41597 1-360 isoform P41597-2): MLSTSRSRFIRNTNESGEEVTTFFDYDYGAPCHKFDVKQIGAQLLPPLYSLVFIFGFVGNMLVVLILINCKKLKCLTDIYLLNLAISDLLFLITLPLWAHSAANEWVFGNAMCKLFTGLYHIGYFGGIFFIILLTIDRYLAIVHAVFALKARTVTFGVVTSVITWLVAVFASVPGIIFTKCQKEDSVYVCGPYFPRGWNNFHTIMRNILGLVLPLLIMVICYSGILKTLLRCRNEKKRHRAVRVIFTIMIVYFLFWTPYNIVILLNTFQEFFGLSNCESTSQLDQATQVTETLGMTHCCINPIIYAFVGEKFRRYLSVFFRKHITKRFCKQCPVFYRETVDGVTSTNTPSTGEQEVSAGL
- METHOD: MCP-1 Receptor Binding Assay in THP-1 Cells (125I labeled MCP-1)
- ASSAY_CONTEXT: 0.5 nM 125I labeled MCP-1, 2 hours at 30° C., read-out: Inhibition of MCP-1 Binding IC50, CCR2 Binding
MEASURED_PARAMETER: IC50 (µM)

Worked cases, IC50 given:
{"COMPOUND": "O=C(CNC(=O)c1cccc(C(F)(F)F)c1)NC1CN(C2CCC(c3ccc(=O)n(CC(F)(F)F)c3)CC2)C1 (single isomer, unassigned) [Example 42a]", "U": "µM", "REPORTED": 0.15}
{"COMPOUND": "O=C(CNC(=O)c1cccc(C(F)(F)F)c1)NC1CN(C2CCC(c3noc(=O)[nH]3)CC2)C1 (stereo not drawn)", "U": "µM", "REPORTED": 1.1}
{"COMPOUND": "Nc1ccc(C2CCC(N3CC(NC(=O)CNC(=O)c4cccc(C(F)(F)F)c4)C3)CC2)nc1 (stereo not drawn)", "U": "µM", "REPORTED": 0.085}

1 = Nc1ncccc1C1CCC(N2CC(NC(=O)CNC(=O)c3cccc(C(F)(F)F)c3)C2)CC1 (single isomer, unassigned) [Example 31a]
2 = CS(=O)(=O)Nc1cccnc1C1CCC(N2CC(NC(=O)CNC(=O)c3cccc(C(F)(F)F)c3)C2)CC1 (stereo not drawn)
3 = CC(C)n1cc(C2CCC(N3CC(NC(=O)CNC(=O)c4cccc(C(F)(F)F)c4)C3)CC2)ccc1=O (single isomer, unassigned) [Example 40a]
Order field: IC50 | Direction: descending (largest first) Sort and list the labels as requested.
2, 3, 1

---

- TARGET_OR_TEST_SYSTEM: CCR2 (Homo sapiens, UniProt P41597)
- METHOD: MCP-1 Receptor Binding Assay in THP-1 Cells (125I labeled MCP-1)
- ASSAY_CONTEXT: 0.5 nM 125I labeled MCP-1, 2 hours at 30° C., read-out: Inhibition of MCP-1 Binding IC50, CCR2 Binding
pIC50: −log10 of the molar value.
MEASURED_PARAMETER: pIC50

Here are 5 molecules together with their reported answers.
{"MOLECULE": "O=C(CNC(=O)c1cccc(C(F)(F)F)c1)NC1CN(C2CCC(c3ccc(NC(=O)C(F)(F)F)cn3)CC2)C1 (stereo not shown) [Example 16]", "pIC50": 7.02}
{"MOLECULE": "Nc1ccc(C2CCC(N3CC(NC(=O)CNC(=O)c4cccc(C(F)(F)F)c4)C3)CC2)cn1 (single isomer, unassigned) [Example 30a]", "pIC50": 6.72}
{"MOLECULE": "O=C(CNC(=O)c1cccc(C(F)(F)F)c1)NC1CN(C2CCC(c3c[nH]c4ccccc34)CC2)C1 (stereo not shown) [Example 50]", "pIC50": 6.04}
{"MOLECULE": "Nc1noc(N)c1C1CCC(N2CC(NC(=O)CNC(=O)c3cccc(C(F)(F)F)c3)C2)CC1 (stereo not shown) [Example 55]", "pIC50": 6.90}
{"MOLECULE": "O=C(CNC(=O)c1cccc(C(F)(F)F)c1)NC1CN(C2CCC(c3ccncc3O)CC2)C1 (stereo not shown) [Example 9]", "pIC50": 7.28}

P = Cn1cc(C2CCC(N3CC(NC(=O)CNC(=O)c4cccc(C(F)(F)F)c4)C3)CC2)ccc1=O (single isomer, unassigned) [Example 38a]
Q = CNc1ccncc1C1CCC(N2CC(NC(=O)CNC(=O)c3cccc(C(F)(F)F)c3)C2)CC1 (stereo not shown) [Example 29a]
Pick one: P or Q . Which has the bigger pIC50 number? Lab log: write the label of the selected item as the result.
P
(P: 7.34, Q: 5.92)
